# target of assay: human GPR40 (Homo sapiens)
# Construct: expressed in transfected cells; host or cells: CHO-k1
# Sequence (O14842 whole entry): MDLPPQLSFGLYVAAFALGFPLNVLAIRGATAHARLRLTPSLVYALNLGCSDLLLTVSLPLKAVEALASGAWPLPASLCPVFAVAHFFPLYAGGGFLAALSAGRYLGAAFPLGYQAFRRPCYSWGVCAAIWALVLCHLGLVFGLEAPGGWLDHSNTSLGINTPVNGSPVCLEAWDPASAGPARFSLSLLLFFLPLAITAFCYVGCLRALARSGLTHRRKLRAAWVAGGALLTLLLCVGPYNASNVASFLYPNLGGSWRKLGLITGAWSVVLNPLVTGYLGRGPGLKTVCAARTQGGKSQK
# procedure summary: In vitro Ca2+ mobilization, CHO-k1 cells stably expressing human GPR40
# Format: cell-based
# experimental context: intracellular calcium, CHO-k1 cells expressing human GPR40; read-out: Ca2+ hGPR40 AC50
Hi! Just check whether AC50 is below 10 µM. Below gives t, equal or above gives f.

Would you please look over these solved cases?
| smi | assigned class |
| --- | --- |
| O=C(O)CCCCCCc1cccc(S(=O)(=O)Nc2nsc(-c3ccccc3)n2)c1 | f |
| Cc1cc(F)cc(-c2ccccc2)c1NS(=O)(=O)c1cccc(CCCCCCC(=O)O)c1 | f |
| Cc1nc(C)c(NS(=O)(=O)c2cccc(CCCCCCC(=O)O)c2)s1 | f |
| O=C(O)CCCCCCc1cccc(S(=O)(=O)Nc2cccc3c(O)cccc23)c1 | t |
| Cc1cc(F)c(-c2ccccc2)cc1NS(=O)(=O)c1cccc(CCCCCCC(=O)O)c1 | t |
| Cc1cc(F)cc(C)c1C(=O)NS(=O)(=O)c1cccc(CCCCCCC(=O)O)c1 | f |
| Cc1cc(C(F)(F)F)cc(C)c1NS(=O)(=O)c1cccc(CCCCCCC(=O)O)c1 | f |

Now consider a different compound.
Is the reported AC50 for `Cc1cc(C(C)C)cc(C)c1NS(=O)(=O)c1cccc(CCCCCCC(=O)O)c1` strictly below 10 µM?
f
